- subject_of_test: MAPKK (Oryctolagus cuniculus, UniProt P29678)
- Sequence (P29678 whole entry): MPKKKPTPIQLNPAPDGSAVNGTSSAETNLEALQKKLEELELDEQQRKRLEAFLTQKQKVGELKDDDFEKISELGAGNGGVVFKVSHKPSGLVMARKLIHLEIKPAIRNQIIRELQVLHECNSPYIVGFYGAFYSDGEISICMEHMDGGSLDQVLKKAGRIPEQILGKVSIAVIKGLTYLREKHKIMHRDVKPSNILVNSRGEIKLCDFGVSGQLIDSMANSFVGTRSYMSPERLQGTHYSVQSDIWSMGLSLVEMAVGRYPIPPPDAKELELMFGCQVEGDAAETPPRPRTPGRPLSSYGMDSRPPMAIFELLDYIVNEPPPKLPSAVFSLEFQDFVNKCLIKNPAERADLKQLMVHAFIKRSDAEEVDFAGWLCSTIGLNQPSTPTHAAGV
recorded_endpoint: pKi
Numbers only, as −log10 of the molar value.

Reported MAPKK (Oryctolagus cuniculus, UniProt P29678) pKi for item Nc1ccc(OP(=O)(O)OP(=O)(O)OP(=O)(O)OC[C@H]2O[C@@H](n3cnc4c(N)ncnc43)[C@H](O)[C@@H]2O)cc1 was 3.75

----------
- subject_of_test: Cyclic A kinase (Bos taurus, UniProt P00517)
recorded_endpoint: Ki (µM)
Numbers only, in µM.

The compound listed as Nc1ccc(OP(=O)(O)OP(=O)(O)OP(=O)(O)OC[C@H]2O[C@@H](n3cnc4c(N)ncnc43)[C@H](O)[C@@H]2O)cc1 shows Ki equal to 104

----------
- subject_of_test: four different protein kinases, namely, p42^mapk, cyclic-A kinase, MAPKK and p60^c-arc
- test_summary: Inhibition of four protein kinases by the ATP derivative (summary over all enzymes)
- Type: biochemical
- reported_conditions: 20 μM ATP; range over four enzymes; read-out: apparent Ki values obtained against each enzyme
recorded_endpoint: Ki

Tested on four different protein kinases, namely, p42^mapk, cyclic-A kinase, MAPKK and p60^c-arc, the item Nc1ccc(OP(=O)(O)OP(=O)(O)OP(=O)(O)OC[C@H]2O[C@@H](n3cnc4c(N)ncnc43)[C@H](O)[C@@H]2O)cc1 showed Ki equal to 75 to 180 µM

----------
- subject_of_test: p60^c-src (Homo sapiens, UniProt P12931)
- Sequence (P12931 whole entry): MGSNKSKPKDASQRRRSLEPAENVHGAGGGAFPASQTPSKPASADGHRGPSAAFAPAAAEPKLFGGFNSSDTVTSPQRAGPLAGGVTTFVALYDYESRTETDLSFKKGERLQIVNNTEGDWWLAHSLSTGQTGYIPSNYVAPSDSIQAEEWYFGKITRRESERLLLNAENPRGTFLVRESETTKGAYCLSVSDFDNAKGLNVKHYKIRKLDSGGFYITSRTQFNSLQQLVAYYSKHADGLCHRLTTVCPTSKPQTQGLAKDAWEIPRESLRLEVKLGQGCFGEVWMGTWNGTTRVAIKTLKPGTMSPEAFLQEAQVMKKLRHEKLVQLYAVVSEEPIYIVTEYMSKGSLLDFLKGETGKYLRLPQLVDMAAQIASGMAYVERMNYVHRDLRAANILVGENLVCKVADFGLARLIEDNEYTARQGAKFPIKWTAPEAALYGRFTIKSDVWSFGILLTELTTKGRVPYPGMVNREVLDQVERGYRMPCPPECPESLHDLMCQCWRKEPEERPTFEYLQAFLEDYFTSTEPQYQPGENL
recorded_endpoint: Ki (µM)
Numbers only, in µM.

The compound listed as Nc1ccc(OP(=O)(O)OP(=O)(O)OP(=O)(O)OC[C@H]2O[C@@H](n3cnc4c(N)ncnc43)[C@H](O)[C@@H]2O)cc1 shows Ki equal to 120

----------
- subject_of_test: p42^mapk (Mus musculus)
- Sequence (P63085 whole entry): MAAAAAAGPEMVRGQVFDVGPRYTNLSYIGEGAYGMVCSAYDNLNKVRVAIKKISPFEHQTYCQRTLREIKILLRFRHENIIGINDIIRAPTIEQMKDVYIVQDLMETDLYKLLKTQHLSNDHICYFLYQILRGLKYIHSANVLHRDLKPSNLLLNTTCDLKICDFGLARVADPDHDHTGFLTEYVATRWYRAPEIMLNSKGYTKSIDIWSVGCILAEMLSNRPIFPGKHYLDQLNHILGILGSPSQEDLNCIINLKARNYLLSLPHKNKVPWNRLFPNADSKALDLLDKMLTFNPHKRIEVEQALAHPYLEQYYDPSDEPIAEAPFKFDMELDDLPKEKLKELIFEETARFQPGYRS
recorded_endpoint: Ki (µM)
Numbers only, in µM.

For Nc1ccc(OP(=O)(O)OP(=O)(O)OP(=O)(O)OC[C@H]2O[C@@H](n3cnc4c(N)ncnc43)[C@H](O)[C@@H]2O)cc1 the compound record lists Ki as 75.2
